assay: anthelmintic activity against nematode growth – whole organism, log2 fold change (AID 1259336);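 also: growth scored by imaging after five days at 20 °C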; details: C. elegans growth, anthelmintic screen
Active and inactive are the calls of the source. Rule as the data show it: active = log2 fold change growth below about -1.8; inactive = the rest.
// allowed return values: active, inactive

O=C(c1ccco1)N(CCCn1ccnc1)c1nc2c(Cl)cccc2s1 ... active
FC(F)(F)c1cnc(Sc2nnc(-c3ccncc3)o2)c(Cl)c1 ... inactive
COc1ccc2nc(C)cc(OCC(=O)Nc3ccccc3OC)c2c1 ... inactive
CCOc1ccc(-c2nc(NC(=O)CS(=O)(=O)c3ccccc3)sc2C)cc1 ... inactive
Cc1ccccc1C(=O)N1NC(=Nc2ccccc2)SC1(C)C ... inactive
Cc1cc(NCC(C)C)c2[nH]nc(-c3ccccc3)c2n1 ... inactive
CC(=O)NC[C@H]1CN(c2ccc(-c3ccc(CO)cc3)c(F)c2)C(=O)O1 ... inactive
CC(=O)Nc1ccc(-c2noc(C[C@H]3CCCN(Cc4cccc(F)c4C)C3)n2)cc1 ... inactive
CC[C@H](Sc1nc2ccccc2o1)C(=O)Nc1nccs1 ... inactive
O=C(CCC1CCCCC1)Nc1cccc(-c2nnc(-c3ccco3)o2)c1 ... inactive

Each compound tested received a call. Report the one for CC(=O)Nc1ccc(NC(=O)c2cc(-c3cc(Cl)ccc3O)n[nH]2)cc1 .
inactive

Each compound tested received a call. Report the one for CC(C)(C)c1cnc(NC(=O)c2ccccc2O)s1 .
inactive

Each compound tested received a call. Report the one for O=C(C1CCN(c2nnc(-n3cccc3)s2)CC1)N1CCC(Cc2ccccc2)CC1 .
inactive

Each compound tested received a call. Report the one for COc1cccc(OCC(=O)c2ccc(Br)cc2)c1 .
inactive

Each compound tested received a call. Report the one for CC[C@H](CO)NCCN[C@H](CC)CO .
inactive

###

experiment: anthelmintic activity against nematode growth – whole organism, log2 fold change (AID 1259336);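 also: growth scored by imaging after five days at 20 °C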; details: C. elegans growth, anthelmintic screen
Calls of active or inactive are those of the source. Rule as the data show it: active = log2 fold change growth below about -1.8; inactive = the rest.
// allowed return values: TRUE (active), FALSE (inactive)

Consider the following illustrative entries.
CC(C)(C)n1nc(Cc2cccc3ccccc23)c2c(N)ncnc21 ... FALSE
CC(C)=CCC/C(C)=C\CNCCNC1C2CC3CC(C2)CC1C3 (stereo not given) ... FALSE
Cc1nn(C)cc1[C@H](C)Nc1nncc(-c2ccc(C(F)(F)F)cc2)n1 ... FALSE
Cc1ccc2nc(Cl)c(CNCc3cccs3)cc2c1 ... FALSE
O=C(Cn1ccnc1[N+](=O)[O-])NCc1ccccc1 ... FALSE
Cc1cc(C)cc(COc2ccc3c(C)c(CCC(=O)O)c(=O)oc3c2C)c1 ... FALSE
COC(=O)c1cccc2oc(-c3cccc(OC)c3NC(=O)c3cc(-c4ccccc4)on3)nc12 ... FALSE
COc1ccccc1OCCCCn1c(C2CC2)nc2ccccc21 ... FALSE
CCCCS(=O)(=O)Nc1ccc2cnn(C)c2c1 ... FALSE
CC[C@@H]([C@H](C)O)n1ncn(-c2ccc(N3CCN(c4ccc(OC[C@@H]5CO[C@@](Cn6cncn6)(c6ccc(F)cc6F)C5)cc4)CC3)cc2)c1=O ... FALSE

Each compound tested received a call. Report the one for Cc1cc(C)n(-c2ccc(NC(=O)C3CCN(Cc4cnc(C)s4)CC3)cc2)n1 .
FALSE

Each compound tested received a call. Report the one for O=C1COCc2ccc(Br)cc2N1Cc1ccc(C(F)(F)F)cc1 .
FALSE

Each compound tested received a call. Report the one for Cc1cc(Cl)ccc1NC(=O)CCc1ccc(S(=O)(=O)NCC(C)C)cc1 .
FALSE
